From: patent US20240270821A1

Molecular target: T1, human GIP receptor (human) (UniProt P48546)
T1 sequence (looked up): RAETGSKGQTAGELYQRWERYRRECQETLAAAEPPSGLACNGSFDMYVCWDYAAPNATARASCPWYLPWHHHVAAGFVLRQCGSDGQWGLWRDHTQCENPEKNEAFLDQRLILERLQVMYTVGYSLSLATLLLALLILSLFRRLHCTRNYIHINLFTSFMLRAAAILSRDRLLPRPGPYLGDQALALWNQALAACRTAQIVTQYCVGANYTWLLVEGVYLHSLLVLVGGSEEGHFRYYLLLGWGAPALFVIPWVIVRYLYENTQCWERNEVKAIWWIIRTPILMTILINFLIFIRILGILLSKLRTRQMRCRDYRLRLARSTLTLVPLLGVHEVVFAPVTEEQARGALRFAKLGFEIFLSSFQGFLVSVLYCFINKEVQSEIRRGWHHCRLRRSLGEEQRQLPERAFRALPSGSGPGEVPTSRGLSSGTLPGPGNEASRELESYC
Assay: cell-based or functional assay
measured_property: cAMP Rel EC50, nM (1% HSA) (nM)
Numbers only; they are read as nM.

binder | measurement_unit | cAMP Rel EC50, nM (1% HSA)
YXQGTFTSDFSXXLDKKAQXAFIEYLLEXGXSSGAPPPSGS (synthetic construct; SITE 2: note = 2-Aminoisobutyric Acid; SITE 12: note = L-ornithine; SITE 13: note = alpha-methyl-leucine; SITE 17: note = Lysine is chemically modified through conjugation of the epsilon-amino group of the Lysine side chain with (2-[2-(2-Amino-ethoxy)-ethoxy]-acetyl)2-(gamma-Glu)) [Example 183] | nM | 13.7
YXQGTXTSDYSIXLDKKAQXAFIEYLLETGPSSGAPPPSEG (synthetic construct; SITE 2: note = 2-Aminoisobutyric Acid; SITE 6: note = alpha-methyl-2-fluoro-L-phenylalanine; SITE 13: note = alpha-methyl-leucine; SITE 17: note = Lysine is chemically modified through conjugation of the epsilon-amino group of the Lysine side chain with (2-[2-(2-Amino-ethoxy)-et)) [Example 417] | nM | 4.46
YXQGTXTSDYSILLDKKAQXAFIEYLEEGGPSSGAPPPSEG (synthetic construct; SITE 2: note = 2-Aminoisobutyric Acid; SITE 6: note = alpha-methyl-2-fluoro-L-phenylalanine; SITE 17: note = Lysine is chemically modified through conjugation of the epsilon-amino group of the Lysine side chain with (gamma-Glu)2-CO-(CH2)16-CO2H; SITE 20: note = 2-Aminoisobutyric) [Example 434] | nM | 10.6
YXQGTXTSDXSILLDKQAQKAFIEYLLEGGPSSGEPPPSEG (not fully specified; synthetic construct; SITE 2: note = 2-Aminoisobutyric Acid; SITE 6: note = alpha-methyl-2-fluoro-L-phenylalanine; SITE 10: note = 3-(4-Pyridyl)-L-alanine; SITE 20: note = Lysine is chemically modified through conjugation of the epsilon-amino group of the Lysine side chain with (2-[2-(2-Amino-ethoxy))) [Example 347] | nM | 17.3

## Input Would you kindly share the measured cAMP Rel EC50, nM (1% HSA) for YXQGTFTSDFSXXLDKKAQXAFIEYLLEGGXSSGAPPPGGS (synthetic construct; SITE 2: note = 2-Aminoisobutyric Acid; SITE 12: note = L-ornithine; SITE 13: note = alpha-methyl-leucine; SITE 17: note = Lysine is chemically modified through conjugation of the epsilon-amino group of the Lysine side chain with (2-[2-(2-Amino-ethoxy)-ethoxy]-acetyl)-(gamma-Glu)) [Example 163] ?
## Output 52

## Input What would you report for YXQGTFTSDXSQXLDKKAQXAFIEYLIEAGPSSGAPPPSGSE (Aib, 4Pal, αMeL, Me4Pal, D-Ala; acylated lysine; amide; synthetic construct; SITE 2: note = 2-Aminoisobutyric Acid; SITE 10: note = 3-(4-Pyridyl)-L-alanine; SITE 13: note = alpha-methyl-leucine; SITE 17: note = Lysine is chemically modified through conjugation of the epsilon-amino group of the Lysine side chain with (gamma-Glu)2-CO-(CH2)16-CO2H; SITE 20:) [Example 1025] ?
## Output 31.5
